- EXPERIMENTAL_SYSTEM: BACE (Homo sapiens (Human))
- Sequence (P56817 46-501, species assumed): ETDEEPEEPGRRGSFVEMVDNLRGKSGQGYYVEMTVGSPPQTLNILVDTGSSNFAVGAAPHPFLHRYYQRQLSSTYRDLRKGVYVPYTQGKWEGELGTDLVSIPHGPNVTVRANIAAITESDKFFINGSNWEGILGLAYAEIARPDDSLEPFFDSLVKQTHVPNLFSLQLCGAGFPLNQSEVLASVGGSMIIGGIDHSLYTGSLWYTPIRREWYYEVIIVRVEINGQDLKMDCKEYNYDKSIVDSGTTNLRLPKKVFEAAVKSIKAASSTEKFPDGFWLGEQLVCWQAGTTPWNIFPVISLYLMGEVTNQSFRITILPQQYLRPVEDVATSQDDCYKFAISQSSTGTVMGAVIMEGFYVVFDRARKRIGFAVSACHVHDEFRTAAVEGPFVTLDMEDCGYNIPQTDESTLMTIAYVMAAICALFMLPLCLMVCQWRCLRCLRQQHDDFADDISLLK
- ASSAY_INFO: In vitro BACE cell-based assay (Aβ40 in conditioned medium, sandwich ELISA)
REPORTED_ENDPOINT: IC50 (µM)
One number for each entry, in µM.

Cc1cc(C#N)cnc1C(=O)Nc1cc(F)c(C)c([C@@]2(C(F)F)N=C(N)O[C@@H]3C[C@@H]32)c1 (racemic) [Example 309]; 0.0387

Query compound follows.
Incoming: Lookup: IC50 / BACE (Homo sapiens (Human)) / NC1=N[C@@](c2cc(NC(=O)c3nn(C(F)F)cc3Cl)cc(F)c2F)(C(F)F)[C@H]2C[C@H]2O1 [Example 114]
Outgoing: 0.0198
